- experimental target: T1, human FGFR2b (Kaixia Biotechnology, catalog number FGR-HM1BB) (human, UniProt P21802-3 22-378)
- T1 construct: extracellular domain; bought; also called hFGFR2b; human FGFR2b protein
- T1 sequence (P21802 other isoform, or with tags, fused parts or gaps): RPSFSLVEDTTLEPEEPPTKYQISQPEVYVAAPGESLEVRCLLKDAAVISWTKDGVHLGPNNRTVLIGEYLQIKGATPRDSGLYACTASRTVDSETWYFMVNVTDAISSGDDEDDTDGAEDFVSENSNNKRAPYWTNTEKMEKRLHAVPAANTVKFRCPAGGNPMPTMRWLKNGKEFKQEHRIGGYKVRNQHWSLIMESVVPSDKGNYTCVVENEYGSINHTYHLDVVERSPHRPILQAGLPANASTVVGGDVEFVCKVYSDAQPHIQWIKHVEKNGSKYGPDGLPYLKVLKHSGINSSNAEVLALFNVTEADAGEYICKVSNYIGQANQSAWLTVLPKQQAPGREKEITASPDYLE
- test protocol: BLI, antibody on AHC2 sensor
Measured kon, listed per entry.
Numeric only. Scale: M⁻¹ s⁻¹

For the binder shown here, 3H9-VH3-VL0 (antibody, human IgG1, kappa, V domains shown, humanized IgG1) VH: QVQLVQSGAEVKKPGASVKVSCKASGYTFSFYNMHWVKQAPGQGLEWIGLIYPDNGDTSYNQKFKGRATLTADTSTSTVYMELSSLRSEDTAVYYCARGGLDYWGQGTTVTVSS VL: DIQMTQSPSSLSASVGDRVTITCRASENIYSNLAWYQQKPGKAPKLLIYAATNLADGVPSRFSGSGSGTDFTLTISSLQPEDFATYYCQHFWGTPYTFGGGTKVEIKR , give the reported kon.
299000

Quick one: kon of 3C7-VH2-VL0 (antibody, human IgG1, kappa, V domains shown, humanized IgG1) VH: QVQLVQSGAEVKKPGASVKVSCKASGYIFRNYYIHWVRQAPGQGLEWMGAIYPDNGDTSYNQRFKVRATLTADTSTSTVYMELSSLRSEDTAVYYCARAFTYWGQGTTVTVSS VL: DIQMTQSPSSLSASVGDRVTITCRASENIYGALNWYQQKPGKAPKLLIYGATNLADGVPSRFSGSGSGTDFTLTISSLQPEDFATYYCQNVLSTPYTFGGGTKVEIKR ?
509000

I am curious: what kon value has been reported for 3H9-VH0-VL0 (antibody, human IgG1, kappa, V domains shown, humanized IgG1) VH: QVQLVQSGAEVKKPGASVKVSCKASGYTFTFYNMHWVRQAPGQGLEWMGLIYPDNGDTSYNQKFKGRATLTADTSTSTVYMELSSLRSEDTAVYYCARGGLDYWGQGTTVTVSS VL: DIQMTQSPSSLSASVGDRVTITCRASENIYSNLAWYQQKPGKAPKLLIYAATNLADGVPSRFSGSGSGTDFTLTISSLQPEDFATYYCQHFWGTPYTFGGGTKVEIKR ?
463000

Entry under review: 3H9-VH2-VL0 (antibody, human IgG1, kappa, V domains shown, humanized IgG1) VH: QVQLVQSGAEVKKPGASVKVSCKASGYTFSFYNMHWVRQAPGQGLEWIGLIYPDNGDTSYNQKFKGRATLTADTSTSTVYMELSSLRSEDTAVYYCARGGLDYWGQGTTVTVSS VL: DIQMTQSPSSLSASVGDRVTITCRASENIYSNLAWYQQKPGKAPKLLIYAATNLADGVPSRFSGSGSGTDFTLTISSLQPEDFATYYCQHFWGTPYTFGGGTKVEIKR . Reported kon?
473000

Endpoint output: kon of 3C7-VH3-VL0 (antibody, human IgG1, kappa, V domains shown, humanized IgG1) VH: QVQLVQSGAEVKKPGASVKVSCKASGYIFRNYYIHWVKQAPGQGLEWMGAIYPDNGDTSYNQRFKVRATLTADTSTSTVYMELSSLRSEDTAVYYCARAFTYWGQGTTVTVSS VL: DIQMTQSPSSLSASVGDRVTITCRASENIYGALNWYQQKPGKAPKLLIYGATNLADGVPSRFSGSGSGTDFTLTISSLQPEDFATYYCQNVLSTPYTFGGGTKVEIKR . Value?
331000
